test: Inhibition of bovine topoisomerase I, using cleavable complex assay.
IC50 overview
Provide the reading as a plain figure in µM.

>  <compound>
CCC1(O)C(=O)OCc2c1cc1n(c2=O)C/C(=C2\C(=O)Nc3ccccc32)C1=O (stereo not given)

>  <units>
µM

>  <IC50>
5.8

$$$$

As a next step, examine the compound that follows.
The value of IC50 measured for the compound CCC1(O)C(=O)OCc2c1cc1n(c2=O)C/C(=C2\C(=O)Nc3ccc(I)cc32)C1=O (stereo not given) turned out to be 32

---

test: Inhibitory concentration against topoisomerase I obtained from calf thymus
pIC50 overview
Note on pIC50: it is the negative log10 of concentration, concentration in mol/L.

>  <compound>
CCC1(O)C(=O)OCc2c1cc1n(c2=O)Cc2c-1nc1ccc(F)cc1c2C(=O)O (stereo not given)

>  <value observed>
5.49

$$$$
>  <compound>
CCC1(O)C(=O)OCc2c1cc1n(c2=O)Cc2c-1nc1cc(F)c(F)cc1c2C(=O)O (stereo not given)

>  <value observed>
5.82

$$$$

The value of pIC50 measured for the compound CCC1(O)C(=O)OCc2c1cc1n(c2=O)Cc2c-1nc1cccc(I)c1c2C(=O)O (stereo not given) turned out to be 5.89

The value of pIC50 measured for the compound CC[C@]1(O)C(=O)OCc2c1cc1n(c2=O)Cc2c-1nc1ccc(C)cc1c2C(=O)O turned out to be 5.72

The value of pIC50 measured for the compound CCC1(O)C(=O)OCc2c1cc1n(c2=O)Cc2c-1nc1ccc(I)cc1c2C(=O)O (stereo not given) turned out to be 5.64

The value of pIC50 measured for the compound CCOC(=O)c1c2c(nc3cc4c(cc13)OCCO4)-c1cc3c(c(=O)n1C2)COC(=O)C3(O)CC (stereo not given) turned out to be 6.15

The value of pIC50 measured for the compound CC[C@]1(O)C(=O)OCc2c1cc1n(c2=O)Cc2c-1nc1ccc(F)cc1c2C(=O)O turned out to be 5.51

The value of pIC50 measured for the compound CCC1(O)C(=O)OCc2c1cc1n(c2=O)Cc2c-1nc1cc3c(cc1c2C(=O)O)OCCO3 (stereo not given) turned out to be 4.62

The value of pIC50 measured for the compound CC[C@]1(O)C(=O)OCc2c1cc1n(c2=O)Cc2c-1nc1ccccc1c2C(=O)O turned out to be 5.68
